Biological target: GABAA receptors composed of the α1β2γ2 subunits (GABRA1/GABRB2/GABRG2) (Homo sapiens, UniProt P14867+P47870)
Construct: expressed in transfected cells; host or cells: Xenopus laevis oocytes, injected (ratio 1:1:1)
Sequence (P14867 28-456): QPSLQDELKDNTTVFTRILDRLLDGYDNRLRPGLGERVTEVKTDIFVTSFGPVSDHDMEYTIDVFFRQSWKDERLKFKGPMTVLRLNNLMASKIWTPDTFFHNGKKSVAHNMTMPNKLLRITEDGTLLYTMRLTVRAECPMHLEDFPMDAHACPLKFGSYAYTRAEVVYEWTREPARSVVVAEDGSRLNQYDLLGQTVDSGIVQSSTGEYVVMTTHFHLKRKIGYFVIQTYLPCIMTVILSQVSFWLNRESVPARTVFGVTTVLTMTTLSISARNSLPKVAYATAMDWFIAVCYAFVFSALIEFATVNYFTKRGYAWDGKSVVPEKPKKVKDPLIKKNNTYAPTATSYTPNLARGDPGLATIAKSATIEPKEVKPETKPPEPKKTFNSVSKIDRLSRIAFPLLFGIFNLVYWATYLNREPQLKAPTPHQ
Sequence (P47870 26-512): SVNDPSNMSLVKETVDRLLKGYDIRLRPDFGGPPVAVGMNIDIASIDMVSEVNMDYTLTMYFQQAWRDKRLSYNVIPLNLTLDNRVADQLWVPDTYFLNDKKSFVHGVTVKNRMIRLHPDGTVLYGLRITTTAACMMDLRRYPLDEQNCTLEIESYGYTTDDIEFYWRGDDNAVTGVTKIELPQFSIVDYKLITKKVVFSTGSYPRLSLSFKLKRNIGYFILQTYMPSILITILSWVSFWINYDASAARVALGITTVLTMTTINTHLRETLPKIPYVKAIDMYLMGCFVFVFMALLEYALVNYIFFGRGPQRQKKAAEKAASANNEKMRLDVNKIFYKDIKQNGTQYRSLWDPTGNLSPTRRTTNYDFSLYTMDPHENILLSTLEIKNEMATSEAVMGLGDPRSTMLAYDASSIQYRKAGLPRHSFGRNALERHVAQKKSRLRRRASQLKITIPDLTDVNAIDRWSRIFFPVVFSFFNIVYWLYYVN
Sequence (P18507 40-475 partner): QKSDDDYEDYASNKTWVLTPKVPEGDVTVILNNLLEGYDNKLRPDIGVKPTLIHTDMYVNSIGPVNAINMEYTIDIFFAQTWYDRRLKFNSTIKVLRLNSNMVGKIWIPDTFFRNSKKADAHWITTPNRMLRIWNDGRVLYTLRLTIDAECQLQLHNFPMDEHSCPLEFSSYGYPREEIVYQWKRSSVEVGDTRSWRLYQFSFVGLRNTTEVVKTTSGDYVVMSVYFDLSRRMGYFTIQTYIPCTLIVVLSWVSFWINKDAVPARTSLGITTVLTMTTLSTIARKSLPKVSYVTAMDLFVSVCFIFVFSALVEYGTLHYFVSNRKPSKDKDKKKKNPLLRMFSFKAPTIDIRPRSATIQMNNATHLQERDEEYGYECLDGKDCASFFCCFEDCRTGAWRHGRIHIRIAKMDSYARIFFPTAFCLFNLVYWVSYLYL
Experiment: Two Electrode Voltage Clamp (TEVC), GABA receptor potentiation in Xenopus laevis oocytes, α1β2γ2
Format: cell-based
Conditions: 10 μM compound, 10 μM GABA, read-out: GABA (α1β2γ2) % efficacy at 10 μM
measured_endpoint: Emax at 10 µM

COC[C@]12CC[C@@](C)(O)C[C@@H]1CC[C@H]1[C@@H]3CC[C@H](C(=O)Cn4nnc5cc(F)ccc54)[C@@]3(C)CC[C@@H]12 500 to 1000%
COC[C@]12CC[C@@](C)(O)C[C@@H]1CC[C@H]1[C@@H]3CC[C@H](C(=O)Cn4cc5cc(Cl)ccc5n4)[C@@]3(C)CC[C@@H]12 50 to 500%

For the next question, use this compound.
Requested field: Emax at 10 µM. Item: COC[C@]12CC[C@@](C)(O)C[C@H]1CC[C@H]1[C@@H]3CC[C@H](C(=O)Cn4nccn4)[C@@]3(C)CC[C@@H]12 500 to 1000%

* * *

Biological target: recombinant α1β2γ2 GABAA receptors (Homo sapiens, UniProt P14867+P47870)
Construct: expressed in transfected cells; host or cells: LTK cells, stably transfected
Sequence (P14867 28-456): as the sequence (P14867 28-456) above
Sequence (P47870 26-512): as the sequence (P47870 26-512) above
Sequence (P18507 40-475 partner): as the sequence (P18507 40-475 partner) above
Assay: Patch clamp electrophysiology (QPatch) in LTK cells stably transfected with α1β2γ2
Type: cell-based
Conditions: 10 μM compound, 2 μM GABA (EC20), read-out: GABA (α1β2γ2) Qpatch in Ltk, % efficacy at 10 μM
measured_endpoint: Emax at 10 µM

COC[C@]12CC[C@@](C)(O)C[C@H]1CC[C@H]1[C@@H]3CC[C@H](C(=O)Cn4nc5ccc(Cl)cc5n4)[C@@]3(C)CC[C@@H]12 > 500%
COC[C@]12CC[C@@](C)(O)C[C@@H]1CC[C@H]1[C@@H]3CC[C@H](C(=O)Cn4nnc5ccc(Cl)cc54)[C@@]3(C)CC[C@@H]12 100 to 500%
COC[C@]12CC[C@@](C)(O)C[C@@H]1CC[C@H]1[C@@H]3CC[C@H](C(=O)Cn4nc5ccc(F)c(F)c5n4)[C@@]3(C)CC[C@@H]12 100 to 500%
COC[C@]12CC[C@@](C)(O)C[C@@H]1CC[C@H]1[C@@H]3CC[C@H](C(=O)Cn4nc5ccc(Cl)cc5n4)[C@@]3(C)CC[C@@H]12 100 to 500%
COC[C@]12CC[C@@](C)(O)C[C@@H]1CC[C@H]1[C@@H]3CC[C@H](C(=O)Cn4nccn4)[C@@]3(C)CC[C@@H]12 100 to 500%
COC[C@]12CC[C@@](C)(O)C[C@@H]1CC[C@H]1[C@@H]3CC[C@H](C(=O)Cn4cnnn4)[C@@]3(C)CC[C@@H]12 > 500%
COC[C@]12CC[C@@](C)(O)C[C@@H]1CC[C@H]1[C@@H]3CC[C@H](C(=O)Cn4nc5ccc(F)cc5n4)[C@@]3(C)CC[C@@H]12 > 500%

For the next question, use this compound.
Requested field: Emax at 10 µM. Item: COC[C@]12CC[C@@](C)(O)C[C@@H]1CC[C@H]1[C@@H]3CC[C@H](C(=O)Cn4nnc5cc(Cl)ccc54)[C@@]3(C)CC[C@@H]12 > 500%

* * *

Target: GABAA receptors composed of the α1β2γ2 subunits (GABRA1/GABRB2/GABRG2) (Homo sapiens, UniProt P14867+P47870)
Construct: expressed in transfected cells; host or cells: Xenopus laevis oocytes, injected (ratio 1:1:1)
Test: Two Electrode Voltage Clamp (TEVC), GABA receptor potentiation in Xenopus laevis oocytes, α1β2γ2
Assay type: cell-based
Conditions: 10 μM compound, 10 μM GABA, read-out: GABA (α1β2γ2) % efficacy at 10 μM
Form field: Emax at 10 µM (one value per entry).

COC[C@]12CC[C@@](C)(O)C[C@@H]1CC[C@H]1[C@@H]3CC[C@H](C(=O)Cn4cc5nccnc5n4)[C@@]3(C)CC[C@@H]12 1000 to 1500%
COC[C@]12CC[C@@](C)(O)C[C@@H]1CC[C@H]1[C@@H]3CC[C@H](C(=O)Cn4ncc5cc(F)ccc54)[C@@]3(C)CC[C@@H]12 500 to 1000%

Requested field: Emax at 10 µM. Item: COC[C@]12CC[C@@](C)(O)C[C@@H]1CC[C@H]1[C@@H]3CC[C@H](C(=O)Cn4cc(S(C)(=O)=O)cn4)[C@@]3(C)CC[C@@H]12 500 to 1000%

Requested field: Emax at 10 µM. Item: CCOC[C@]12CC[C@@](C)(O)C[C@@H]1CC[C@H]1[C@@H]3CC[C@H](C(=O)Cn4nnc5ccc(Cl)cc54)[C@@]3(C)CC[C@@H]12 50 to 500%

Requested field: Emax at 10 µM. Item: COC[C@]12CC[C@@](C)(O)C[C@@H]1CC[C@H]1[C@@H]3CC[C@H](C(=O)Cn4ncc5ncc(Cl)cc54)[C@@]3(C)CC[C@@H]12 500 to 1000%

Requested field: Emax at 10 µM. Item: COC[C@]12CC[C@@](C)(O)C[C@@H]1CC[C@H]1[C@@H]3CC[C@H](C(=O)Cn4nnc5c(Cl)cccc54)[C@@]3(C)CC[C@@H]12 50 to 500%

Requested field: Emax at 10 µM. Item: CCOC[C@]12CC[C@@](C)(O)C[C@@H]1CC[C@H]1[C@@H]3CC[C@H](C(=O)Cn4nnc5cc(Cl)ccc54)[C@@]3(C)CC[C@@H]12 50 to 500%

Requested field: Emax at 10 µM. Item: COC[C@]12CC[C@@](C)(O)C[C@@H]1CC[C@H]1[C@@H]3CC[C@H](C(=O)Cn4nnc5c(F)cc(F)cc54)[C@@]3(C)CC[C@@H]12 50 to 500%

Requested field: Emax at 10 µM. Item: COC[C@]12CC[C@@](C)(O)C[C@@H]1CC[C@H]1[C@@H]3CC[C@H](C(=O)Cn4cc(Cl)cn4)[C@@]3(C)CC[C@@H]12 1000 to 1500%

Requested field: Emax at 10 µM. Item: COC[C@]12CC[C@@](C)(O)C[C@H]1CC[C@H]1[C@@H]3CC[C@H](C(=O)Cn4nnc5ccc(F)c(F)c54)[C@@]3(C)CC[C@@H]12 1000 to 1500%

Requested field: Emax at 10 µM. Item: COC[C@]12CC[C@@](C)(O)C[C@@H]1CC[C@H]1[C@@H]3CC[C@H](C(=O)Cn4nc5cccc(F)c5n4)[C@@]3(C)CC[C@@H]12 500 to 1000%

Requested field: Emax at 10 µM. Item: COC[C@]12CC[C@@](C)(O)C[C@@H]1CC[C@H]1[C@@H]3CC[C@H](C(=O)Cn4nc5ccc(OC)cc5n4)[C@@]3(C)CC[C@@H]12 500 to 1000%

Requested field: Emax at 10 µM. Item: COC[C@]12CC[C@@](C)(O)C[C@H]1CC[C@H]1[C@@H]3CC[C@H](C(=O)Cn4cc(S(C)(=O)=O)cn4)[C@@]3(C)CC[C@@H]12 50 to 500%

Requested field: Emax at 10 µM. Item: COC[C@]12CC[C@@](C)(O)C[C@@H]1CC[C@H]1[C@@H]3CC[C@H](C(=O)Cn4cc(C#N)cn4)[C@@]3(C)CC[C@@H]12 1000 to 1500%

Requested field: Emax at 10 µM. Item: COC[C@]12CC[C@@](C)(O)C[C@@H]1CC[C@H]1[C@@H]3CC[C@H](C(=O)Cn4nnc5ccc(F)cc54)[C@@]3(C)CC[C@@H]12 1000 to 1500%

Requested field: Emax at 10 µM. Item: COC[C@]12CC[C@@](C)(O)C[C@@H]1CC[C@H]1[C@@H]3CC[C@H](C(=O)Cn4nc5cc(Cl)cnc5n4)[C@@]3(C)CC[C@@H]12 1000 to 1500%

Requested field: Emax at 10 µM. Item: COC[C@]12CC[C@@](C)(O)C[C@H]1CC[C@H]1[C@@H]3CC[C@H](C(=O)Cn4nnc5cc(F)ccc54)[C@@]3(C)CC[C@@H]12 500 to 1000%

Requested field: Emax at 10 µM. Item: COC[C@]12CC[C@@](C)(O)C[C@@H]1CC[C@H]1[C@@H]3CC[C@H](C(=O)Cn4nnc(C)n4)[C@@]3(C)CC[C@@H]12 1000 to 1500%

Requested field: Emax at 10 µM. Item: COC[C@]12CC[C@@](C)(O)C[C@@H]1CC[C@H]1[C@@H]3CC[C@H](C(=O)Cn4nnc5ccccc54)[C@@]3(C)CC[C@@H]12 500 to 1000%

Requested field: Emax at 10 µM. Item: COC[C@]12CC[C@@](C)(O)C[C@@H]1CC[C@H]1[C@@H]3CC[C@H](C(=O)Cn4nnc5c(OC)cc(OC)cc54)[C@@]3(C)CC[C@@H]12 50 to 500%

Requested field: Emax at 10 µM. Item: COC[C@]12CC[C@@](C)(O)C[C@@H]1CC[C@H]1[C@@H]3CC[C@H](C(=O)Cn4nnc5c(F)cccc54)[C@@]3(C)CC[C@@H]12 500 to 1000%

Requested field: Emax at 10 µM. Item: COC[C@]12CC[C@@](C)(O)C[C@@H]1CC[C@H]1[C@@H]3CC[C@H](C(=O)Cn4nnc5c(OC)c(OC)ccc54)[C@@]3(C)CC[C@@H]12 500 to 1000%
